// provenance: ChEMBL document CHEMBL4513216

Let's look at some compounds and their measured cytotoxicity at 10 µM.
procedureDetails: Toxicity liver stage against HepG2, at 10uM
Format: cell-based
Parameters: test concentration 10 uM, cell line HepG2-A16-CD81EGFP
condition: human, HepG2-A16-CD81EGFP cells; read-out: INHIBITION
Express the result in % but write the number alone.

Consider the following illustrative entries.
compound	measurementLabel	unitName	valueObserved
CC(C)NC(=O)C1CCN(c2snc3ccccc23)CC1	cytotoxicity at 10 µM	%	-8.18
CN1CCOC(C)(C(=O)Nc2nccs2)C1 (stereo not drawn)	cytotoxicity at 10 µM	%	4.92
CN(C)C(=O)Cc1ccccc1NCc1noc(-c2ccccc2)n1	cytotoxicity at 10 µM	%	6.95
CC(C)N(CCCNC(=O)C1CC1)S(C)(=O)=O	cytotoxicity at 10 µM	%	-5.55
CNCc1n[nH]c(=O)n1CC1CCCCC1	cytotoxicity at 10 µM	%	-46.5
O=c1c(NCCc2ccc(O)cc2)c(NCc2ccncc2)c1=O	cytotoxicity at 10 µM	%	-5.46

Now for a further compound.
Query :: # cytotoxicity at 10 µM lookup, item CC(CN(C)C(=O)c1cn(C)nc1-c1ccc(F)cc1F)C(=O)O (stereo not drawn)
Result :: 0.184
